# maps each entry to its AC50
Molecular target: human PAH with the R408W mutation (Homo sapiens, UniProt P00439, R408W)
Construct: expressed in transfected cells
Sequence (P00439 1-452 R408W): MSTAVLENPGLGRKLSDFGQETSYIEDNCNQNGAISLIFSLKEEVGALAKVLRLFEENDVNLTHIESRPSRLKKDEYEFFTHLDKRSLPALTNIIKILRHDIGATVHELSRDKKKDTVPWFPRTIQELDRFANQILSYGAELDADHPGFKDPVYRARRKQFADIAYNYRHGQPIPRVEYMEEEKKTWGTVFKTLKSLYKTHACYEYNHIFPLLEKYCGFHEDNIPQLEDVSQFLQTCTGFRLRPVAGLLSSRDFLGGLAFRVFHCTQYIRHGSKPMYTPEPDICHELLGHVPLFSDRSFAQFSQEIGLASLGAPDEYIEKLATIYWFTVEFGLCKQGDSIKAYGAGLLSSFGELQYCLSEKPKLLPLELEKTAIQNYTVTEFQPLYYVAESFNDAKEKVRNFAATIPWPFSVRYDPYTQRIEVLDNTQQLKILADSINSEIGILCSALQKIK
Assay: Cell Based Phenylalanine Flux Assay
Conditions: A375 cells expressing human R408W PAH; 24 hrs with compound; 13C-Tyrosine by LC-MS; average where tested multiple times; read-out: AC50

Recorded AC50, per entry:
Query: Tell me the measured AC50 of Cc1cnc(CCC(=O)N2CCc3[nH]cnc3[C@H]2c2nc3ccccc3[nH]2)s1 , please.
Reply: 1 to 5 µM

Query: Tell me the measured AC50 of Cc1csc(C(=O)N2CCc3[nH]cnc3[C@H]2c2nc3ccccc3[nH]2)n1 , please.
Reply: 1 to 5 µM

Query: Tell me the measured AC50 of O=C(c1ncn2ccccc12)N1CCc2[nH]cnc2C1c1nc2ccc(Br)cc2[nH]1 (stereo not shown) , please.
Reply: 1 to 5 µM

Now, please, on to the next molecule.
Query: Tell me the measured AC50 of O=C(Cc1cnn2ccccc12)N1CCc2[nH]cnc2C1c1nc2ccccc2s1 (stereo not shown) , please.
Reply: 1 to 5 µM

====

# maps each entry to its AC50
Target: human PAH with the R408W mutation (Homo sapiens, UniProt P00439, R408W)
Construct: expressed in transfected cells
Test: Cell Based Phenylalanine Flux Assay
Conditions: A375 cells expressing human R408W PAH; 24 hrs compound incubation; 13C-Tyrosine by LC-MS; average where tested multiple times; read-out: AC50

Recorded AC50, per entry:
Query: Tell me the measured AC50 of O=C(c1oc(C2CC2)nc1C(F)F)N1CCc2[nH]cnc2[C@@H]1c1nc2c(F)cccc2s1 [Example 1572] , please.
Reply: 500 to 1000 nM

Query: Tell me the measured AC50 of Cn1cc(-c2nnc(C(=O)N3CCc4[nH]cnc4[C@@H]3c3nc4ccccc4s3)o2)c(C(F)(F)F)n1 [Example 1884] , please.
Reply: 1000 to 5000 nM

Query: Tell me the measured AC50 of Cc1nc(-c2ccccc2)c(C(=O)N2CCc3[nH]cnc3[C@H]2c2nc3ccccc3s2)o1 [Example 1520] , please.
Reply: 500 to 1000 nM

Query: Tell me the measured AC50 of C[C@@H](O)c1nc(C(F)F)c(C(=O)N2CCc3[nH]cnc3[C@@H]2c2nc3c(C(F)(F)F)cccc3s2)o1 [Example 2110] , please.
Reply: 1000 to 5000 nM

Query: Tell me the measured AC50 of O=C(c1cnsc1)N1CCc2[nH]cnc2[C@H]1c1nc2ccccc2s1 [Example 1061] , please.
Reply: 500 to 1000 nM

Continuing:
Query: Tell me the measured AC50 of CC(C)(CO)c1nc(C(F)F)c(C(=O)N2CCc3[nH]cnc3[C@H]2c2nc3c(F)cccc3s2)o1 [Example 2071] , please.
Reply: < 500 nM

Query: Tell me the measured AC50 of O=C(c1cnn2ccc(Br)cc12)N1CCc2[nH]cnc2[C@@H]1c1nc2cc(F)ccc2s1 [Example 1282] , please.
Reply: 1000 to 5000 nM

====

# maps each entry to its AC50
Biological target: human PAH with the R408W mutation (Homo sapiens, UniProt P00439, R408W)
Construct: expressed in transfected cells
Assay: Cell Based Phenylalanine Flux Assay
Conditions: A375 cells expressing human R408W PAH; 24 hrs compound incubation; 13C-Tyrosine by LC-MS; average where tested multiple times; read-out: AC50

Query: Tell me the measured AC50 of C[C@@H]1CN(C(=O)c2nnc(-c3ccccn3)o2)[C@H](c2nc3ccccc3s2)c2nc[nH]c21 [Example 1588] , please.
Reply: 0.5 to 1 µM

Continuing:
Query: Tell me the measured AC50 of O=C(c1cncs1)N1CCc2[nH]cnc2[C@@H]1c1nc2c(F)cccc2s1 [Example 1218] , please.
Reply: 1 to 5 µM

Query: Tell me the measured AC50 of COCc1ncc(C(=O)N2CCc3[nH]cnc3[C@@H]2c2nc3ccccc3s2)s1 [Example 1186] , please.
Reply: 1 to 5 µM

Query: Tell me the measured AC50 of O=C(c1nnc(-c2ccc(C(F)(F)F)cn2)o1)N1CCc2[nH]cnc2[C@@H]1c1nc2c(F)cccc2s1 [Example 1847] , please.
Reply: 1 to 5 µM

Query: Tell me the measured AC50 of CC(C)(O)c1nc(C(F)F)c(C(=O)N2CCc3[nH]cnc3[C@H]2c2nc3c(C(F)(F)F)cccc3s2)o1 [Example 2103] , please.
Reply: < 0.5 µM

Query: Tell me the measured AC50 of O=C(c1cnn2cc(CN3CCC(F)(F)C3)ccc12)N1CCc2[nH]cnc2[C@@H]1c1nc2ccccc2s1 [Example 1314] , please.
Reply: > 5 µM

Query: Tell me the measured AC50 of Cc1nc(C2(O)CC2)oc1C(=O)N1CCc2[nH]cnc2[C@H]1c1nc2c(F)cccc2s1 [Example 1949] , please.
Reply: 0.5 to 1 µM

Query: Tell me the measured AC50 of O=C(CCc1nccs1)N1CCc2[nH]cnc2[C@H]1c1ncc(Br)s1 [Example 2148] , please.
Reply: 1 to 5 µM

====

Target: human PAH with the R408W mutation (Homo sapiens, UniProt P00439, R408W)
Construct: expressed in transfected cells
Assay: Cell Based Phenylalanine Flux Assay
Conditions: A375 cells expressing human R408W PAH; 24 hrs compound incubation; 13C-Tyrosine by LC-MS; average where tested multiple times; read-out: AC50
# maps each entry to its AC50

Recorded AC50, per entry:
Query: Tell me the measured AC50 of CC(C)(c1nc(C(F)F)c(C(=O)N2CCc3[nH]cnc3[C@@H]2c2nc3c(F)cccc3s2)o1)S(C)(=O)=O [Example 2006] , please.
Reply: 1000 to 5000 nM

Query: Tell me the measured AC50 of CC(C)(C)c1ncoc1C(=O)N1CCc2[nH]cnc2[C@H]1c1nc2c(F)cccc2s1 [Example 2181] , please.
Reply: < 500 nM

Query: Tell me the measured AC50 of Cc1nc(CC2CC2)oc1C(=O)N1CCc2[nH]cnc2[C@@H]1c1nc2ccccc2s1 [Example 1400] , please.
Reply: 1000 to 5000 nM

Continuing:
Query: Tell me the measured AC50 of O=C(c1nc2ccccc2[nH]1)N1CCc2[nH]cnc2[C@@H]1c1nc2ccccc2s1 [Example 1132] , please.
Reply: 1000 to 5000 nM

Query: Tell me the measured AC50 of CC(O)(c1nc(C(F)(F)F)c(C(=O)N2CCc3[nH]cnc3[C@H]2c2nc3ccccc3s2)o1)C1CC1 (single isomer, unassigned) [Example 1562] , please.
Reply: < 500 nM

Query: Tell me the measured AC50 of Cn1cc(C(F)(F)C(=O)N2CCc3[nH]cnc3[C@H]2c2nc3ccccc3s2)cn1 [Example 1555] , please.
Reply: 1000 to 5000 nM

Query: Tell me the measured AC50 of N#Cc1nc(N2CCC(F)CC2)oc1C(=O)N1CCc2[nH]cnc2[C@H]1c1nc2ccccc2s1 [Example 1651] , please.
Reply: 500 to 1000 nM

Query: Tell me the measured AC50 of O=C(c1cnn2cc(-c3ccccc3)ccc12)N1CCc2[nH]cnc2[C@H]1c1nc2ccccc2s1 [Example 1209] , please.
Reply: 1000 to 5000 nM

====

Target: human PAH with the R408W mutation (Homo sapiens, UniProt P00439, R408W)
Construct: expressed in transfected cells
Assay: Cell Based Phenylalanine Flux Assay
Conditions: A375 cells expressing human R408W PAH; 24 hrs compound incubation; 13C-Tyrosine by LC-MS; average where tested multiple times; read-out: AC50
# maps each entry to its AC50

Recorded AC50, per entry:
Query: Tell me the measured AC50 of Cc1nc(C(C)(C)C#N)oc1C(=O)N1CCc2[nH]cnc2[C@H]1c1nc2c(F)cccc2s1 , please.
Reply: < 500 nM

Query: Tell me the measured AC50 of O=C(c1nnc(-c2c(F)cccc2F)o1)N1CCc2[nH]cnc2[C@H]1c1nc2ccccc2s1 , please.
Reply: < 500 nM

Query: Tell me the measured AC50 of CC(C)(O)c1ccc2c(C(=O)N3CCc4[nH]cnc4[C@H]3c3nc4ccccc4s3)cnn2c1 , please.
Reply: < 500 nM

Query: Tell me the measured AC50 of Cc1cc(C2(C(=O)N3CCc4[nH]cnc4[C@@H]3c3nc4ccccc4s3)CC2)on1 , please.
Reply: 1000 to 5000 nM

Query: Tell me the measured AC50 of CC(C)(O)c1ncc(C(=O)N2CC3(CC3)c3[nH]cnc3[C@H]2c2nc3ccccc3s2)o1 , please.
Reply: 500 to 1000 nM

Now, please, on to the next compound.
Query: Tell me the measured AC50 of Cn1nccc1C(=O)N1CCc2[nH]cnc2[C@H]1c1nc2ccccc2s1 , please.
Reply: < 500 nM

Source listed as patent US20250171438A1.
